Experiment: Pharmacokinetic studies in rats
Assay type: in vivo, rat
Conditions: rat, plasma, iv, 5 mg/kg, rat, IV, 5 mg/kg; plasma, parent compound; read-out: Vz
Measured Vd accompanies every entry in the list below.
Reply with a number, then the unit it belongs to.

Sample answers from the record:
{"Compound": "CC(C)(C)C[C@H]1N[C@@H](C(=O)NC2CCC(NS(C)(=O)=O)CC2)[C@H](c2cccc(Cl)c2F)[C@@]12C(=O)Nc1cc(Cl)ccc12 (stereo partly shown)", "Vd": "7.1 L/kg"}
{"Compound": "CC(C)(C)C[C@H]1N[C@@H](C(=O)N[C@H]2C[C@@](C)(O)C2)[C@H](c2cccc(Cl)c2F)[C@@]12C(=O)Nc1cc(Cl)ccc12", "Vd": "9 L/kg"}
{"Compound": "CC(C)(C)C[C@H]1N[C@@H](C(=O)N[C@H]2CC[C@@H](O)C2)[C@H](c2cccc(Cl)c2F)[C@@]12C(=O)Nc1cc(Cl)ccc12", "Vd": "7.5 L/kg"}

In the following, a different compound is considered.
Request: Requested read-out: Vd. Entry: CC(C)(C)C[C@H]1N[C@@H](C(=O)NC2CCC(O)CC2)[C@H](c2cccc(Cl)c2F)[C@@]12C(=O)Nc1cc(Cl)ccc12 (stereo partly shown)
Response: 3 L/kg

----------
Measured Microsomal stability, % remaining accompanies every entry in the list below.
Experiment: In vitro microsomal stability, human
Assay type: in vitro ADME
Details: Human Microsome, same batch, 5 min

Sample answers from the record:
{"Compound": "CC(C)(C)C[C@H]1N[C@@H](C(=O)NCC[C@H](O)CN2CCCC2)[C@H](c2cccc(Cl)c2)[C@@]12C(=O)Nc1cc(Cl)c(F)cc12", "Microsomal stability, % remaining": "91.87%"}
{"Compound": "CC(C)(C)C[C@H]1N[C@@H](C(=O)NCCC(C)(O)CO)[C@H](c2cccc(Cl)c2)[C@@]12C(=O)Nc1cc(Cl)c(F)cc12 (some centres unmarked)", "Microsomal stability, % remaining": "95.88%"}
{"Compound": "CC(C)(C)C[C@H]1N[C@@H](C(=O)NCC[C@H](O)CNC(C)(C)C)[C@H](c2cccc(Cl)c2)[C@@]12C(=O)Nc1cc(Cl)c(F)cc12", "Microsomal stability, % remaining": "57.08%"}

Request: Requested read-out: Microsomal stability, % remaining. Entry: `CC(C)(C)C[C@H]1N[C@@H](C(=O)NCC[C@H](O)CN2CC[C@@H](O)C2)[C@H](c2cccc(Cl)c2)[C@@]12C(=O)Nc1cc(Cl)c(F)cc12`
Response: 70.67%

Request: # repeat for CC(O)C(O)CCNC(=O)[C@@H]1N[C@H](CC(C)(C)C)[C@]2(C(=O)Nc3cc(Cl)c(F)cc32)[C@H]1c1cccc(Cl)c1 (some centres unmarked)
Response: 78.11%

----------
Test system: cancer cell lines with wild-type p53 / mutated or deleted p53 (ATCC)
Assay: Cell growth assay (WST-8), other cancer cell lines
Format: cell-based
Conditions: Homo sapiens, PC-3, Table 19A; PC-3 cells, deleted p53, cell growth; read-out: PC-3 (deleted p53) IC50
Just a reminder that ties go to class 0: only IC50 strictly below 4 µM counts as class 1.

Previously resolved entries follow.
{"Molecule": "CC(O)C(O)CCNC(=O)[C@@H]1N[C@H](CC(C)(C)C)[C@]2(C(=O)Nc3cc(Cl)c(F)cc32)[C@H]1c1cccc(Cl)c1 (stereo partly drawn)", "Class assignment": "class 0"}
{"Molecule": "CC(C)(C)C[C@H]1N[C@@H](C(=O)NCCC(C)(O)CO)[C@H](c2cccc(Cl)c2)[C@@]12C(=O)Nc1cc(Cl)c(F)cc12 (stereo partly drawn)", "Class assignment": "class 0"}
{"Molecule": "CC(C)(C)C[C@H]1N[C@@H](C(N)=O)[C@H](c2cccc(Cl)c2)[C@@]12C(=O)Nc1cc(Cl)c(F)cc12", "Class assignment": "class 0"}

Request: Identify whether the molecule `CC(C)(C)C[C@H]1N[C@@H](C(=O)NC2CN(CCO)C2)[C@H](c2cccc(Cl)c2F)[C@@]12C(=O)Nc1cc(Cl)ccc12` records IC50 below 4 µM.
Response: class 0

Request: # repeat for `CC(C)(C)C[C@H]1N[C@@H](C(=O)NCCN2CCC(O)CC2)[C@H](c2cccc(Cl)c2)[C@@]12C(=O)Nc1cc(Cl)c(F)cc12`
Response: class 0

Request: # repeat for `CNCC(=O)N1CCN(C(=O)[C@@H]2N[C@H](CC(C)(C)C)[C@]3(C(=O)Nc4cc(Cl)c(F)cc43)[C@H]2c2cccc(Cl)c2)CC1`
Response: class 1

Request: # repeat for CC(C)C[C@H](N)C(=O)OC1CCC(NC(=O)[C@@H]2N[C@H](CC(C)(C)C)[C@]3(C(=O)Nc4cc(Cl)ccc43)[C@H]2c2cccc(Cl)c2F)CC1 (stereo partly drawn)
Response: class 1

Request: # repeat for `CC(C)N1CCN(CCCNC(=O)[C@@H]2N[C@H](CC(C)(C)C)[C@]3(C(=O)Nc4cc(Cl)ccc43)[C@H]2c2cccc(Cl)c2F)CC1`
Response: class 0

Request: # repeat for `CC(=O)N1CCN(C(=O)[C@@H]2N[C@H](CC(C)(C)C)[C@]3(C(=O)Nc4cc(Cl)c(F)cc43)[C@H]2c2cccc(Cl)c2)CC1`
Response: class 0

Request: # repeat for O=C(NC1CCC(O)CC1)[C@@H]1N[C@H](C=C2CCCC2)[C@]2(C(=O)Nc3cc(Cl)ccc32)[C@H]1c1cccc(Cl)c1F (stereo partly drawn)
Response: class 0

Request: # repeat for `CCN(CC)C(=O)N1CC(NC(=O)[C@@H]2N[C@H](CC(C)(C)C)[C@]3(C(=O)Nc4cc(Cl)ccc43)[C@H]2c2cccc(Cl)c2F)C1`
Response: class 0

Request: # repeat for `CC(C)(C)C[C@H]1N[C@@H](C(=O)N2CCNCC2)[C@H](c2cccc(Cl)c2)[C@@]12C(=O)Nc1cc(Cl)c(F)cc12`
Response: class 1

From: patent US9079913B2
